Each recorded value in this set is attributed to patent US20200277355A1.

Molecular target: T1, TNFR1
T1 chain: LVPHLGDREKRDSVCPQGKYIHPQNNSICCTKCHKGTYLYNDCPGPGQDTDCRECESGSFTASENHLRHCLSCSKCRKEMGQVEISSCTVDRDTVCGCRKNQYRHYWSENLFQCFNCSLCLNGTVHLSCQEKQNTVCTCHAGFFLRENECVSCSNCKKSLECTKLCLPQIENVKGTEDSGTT
Metric: Kd (µM)
Provide only the numeric value, understood in µM.

[in] Can you look up the measured Kd of DEQHLETELH (modifications not checked) [selective TNFR1 antagonist peptide Hydrostatin-SN10] for me?
[out] 2.77
